Readings of Selectivity Ratio M for the listed molecules
# System: P. falciparum male gametocytes
# Assay Method Text: P. falciparum Dual Gamete Formation Assay (PfDGFA), male readout (exflagellation)
# Assay type: cell-based, Plasmodium falciparum NF54
# Condition Details: HepG2 Tox50 versus male IC50
Please give the numeric answer without any surrounding text.

# annotated cases, reported Selectivity Ratio M shown
CCN(CC)CCOc1ccc(C(O)(C#CC(O)(c2ccc(OCCN(CC)CC)cc2)c2ccc([N+](=O)[O-])cc2)c2ccc([N+](=O)[O-])cc2)cc1 (stereo not drawn) [TCMDC-137201] = 2.26
CNCCNCc1ccc(-c2ccc(-c3nc4cccc(C)c4[nH]3)cc2)cc1.O=C(O)C(F)(F)F [TCMDC-132837] = 7.9
CCN(CC)CCN(Cc1ccc(-c2ccc(C(F)(F)F)cc2)cc1)C(=O)Cn1cc(Cc2cnn(C)c2)c(=O)nc1/C=C/c1cccc(F)c1F.O=C(O)C(O)C(O)C(=O)O [TCMDC-140964] = 20.63
COc1c(CCNCCCCNCCc2cc(Cl)c3ccccc3c2OC)cc(Cl)c2ccccc12.CS(=O)(=O)O [TCMDC-137869] = 3.25
COc1cccc(OC)c1CN1CCC(N(C)CCCCCCCCCN2CCC(OC(=O)Nc3ccccc3-c3ccccc3)CC2)CC1 [TCMDC-134690] = 1.95

Let us examine a further case.
Incoming: Find the recorded Selectivity Ratio M belonging to COCCN(C)CCCOc1cc2c(cc1OC)ncn2-c1cc(OCc2ccccc2C(F)(F)F)c(C(N)=O)s1.Cl [TCMDC-135214] and report it.
Outgoing: 22.02

---

Readings of % inhibition female (individual replicates) R3 for the listed compounds
# Tested on: P. falciparum female gametocytes
# Assay Method Text: P. falciparum Dual Gamete Formation Assay (PfDGFA), female readout (Pfs25-positive female gametes)
# Format: cell-based, Plasmodium falciparum NF54
# Condition Details: PfDGFA at 2µM, 24h preincubation with gametocytes; replicate R3
Form entry: value (%) — number only.

# annotated cases, reported % inhibition female (individual replicates) R3 shown
CCCN(CCC)CCCN(CCCN(CCC)CCC)c1cc(C)nc(Nc2ccc3cc(Br)ccc3c2)n1.Cl = 25.8
COc1ccccc1-c1nc2c(ccc3nc(N)nc(N)c32)[nH]1 = 49.2
CN(C)CCNCc1ccc(-c2ccc3c(Nc4ccc(Oc5ccccc5)cc4)ccnc3c2)o1 = 23.6
CCN(CC)CCOc1ccc(C(O)(C#CC(O)(c2ccc(Br)cc2)c2ccc(OCCN(CC)CC)cc2)c2ccc(Br)cc2)cc1 (stereo not shown) = 18.5

Incoming: Find the recorded % inhibition female (individual replicates) R3 belonging to CCCCOc1c(CCNCCCCNCCc2cc(OC)c3ccccc3c2OCCCC)cc(OC)c2ccccc12.CS(=O)(=O)O and report it.
Outgoing: 23.0

Incoming: Find the recorded % inhibition female (individual replicates) R3 belonging to CCN(CC)CCOc1ccc(C(O)(C#CC(O)(c2ccc(C)cc2)c2ccc(OCCN(CC)CC)cc2)c2ccc(C)cc2)cc1 (stereo not shown) and report it.
Outgoing: 8.3

Incoming: Find the recorded % inhibition female (individual replicates) R3 belonging to CN1CCCC1CCNCc1cccc(-c2cnc(N(C)C3CCCCC3)nc2)c1 (stereo not shown) and report it.
Outgoing: 11.1

Incoming: Find the recorded % inhibition female (individual replicates) R3 belonging to CN(CCCNCc1cccc2ccccc12)CCCNCc1cccc2ccccc12.Cl and report it.
Outgoing: 30.8

Incoming: Find the recorded % inhibition female (individual replicates) R3 belonging to CN1CCC(NCc2cccc(-c3nn(C)c4nc(NC5CCCC5)ncc34)c2)CC1 and report it.
Outgoing: 25.6

Incoming: Find the recorded % inhibition female (individual replicates) R3 belonging to CC(Cc1ccc(C(=O)Nc2ccc(CC(C)NCCc3cccc(Cl)c3)cc2)cc1)NCCc1ccc(C(F)(F)F)cc1 (stereo not shown) and report it.
Outgoing: 24.4

Incoming: Find the recorded % inhibition female (individual replicates) R3 belonging to CCCCCCCCN1CCN(CCCCCCNc2c3ccccc3nc3ccccc23)CC1.Cl and report it.
Outgoing: 90.0

Incoming: Find the recorded % inhibition female (individual replicates) R3 belonging to CCCCOc1ccc(C(=O)C(CCC(CNC(C)(C)C)C(=O)c2ccc(OCCCC)cc2)CNC(C)(C)C)cc1.Cl (stereo not shown) and report it.
Outgoing: 20.3

Incoming: Find the recorded % inhibition female (individual replicates) R3 belonging to Cc1cccc2nc(-c3ccc(-c4ccc(CN5CCC(CCN6CCCCC6)CC5)cc4)cc3)[nH]c12.O=C(O)C(F)(F)F and report it.
Outgoing: 37.3

Incoming: Find the recorded % inhibition female (individual replicates) R3 belonging to COc1ccc(N2CCN(CCCCNCc3ccc(NC(=O)c4cc(Cl)cc(Cl)c4)cc3)CC2)c(OC)c1 and report it.
Outgoing: 39.5

Incoming: Find the recorded % inhibition female (individual replicates) R3 belonging to C=CCOc1ccc2ccccc2c1CNCCCCCCNCc1c(OCC=C)ccc2ccccc12.CS(=O)(=O)O and report it.
Outgoing: 31.1

Incoming: Find the recorded % inhibition female (individual replicates) R3 belonging to CNCCNCc1ccc(-c2ccc(-c3nc4cccc(C)c4[nH]3)cc2)cc1.O=C(O)C(F)(F)F and report it.
Outgoing: 47.7

---

Readings of % inhibition male (individual replicates) R1 for the listed molecules
# Tested on: P. falciparum male gametocytes
# Assay Method Text: P. falciparum Dual Gamete Formation Assay (PfDGFA), male readout (exflagellation)
# Type: cell-based, Plasmodium falciparum NF54
# Condition Details: PfDGFA at 2µM, 24h preincubation with gametocytes prior to induction of gametogenesis; replicate R1
Form entry: value (%) — number only.

Incoming: Find the recorded % inhibition male (individual replicates) R1 belonging to CCCc1cc(Cc2cnc(N)nc2N)cc(CCC)c1O.Cl and report it.
Outgoing: 13.3

Incoming: Find the recorded % inhibition male (individual replicates) R1 belonging to CCCCOc1ccc(N2C(N)=NC(N)=NC2(C)C)cc1.Cl and report it.
Outgoing: -7.3

Incoming: Find the recorded % inhibition male (individual replicates) R1 belonging to CC(C)n1cc2c(ccc3nc(N)nc(N)c32)n1 and report it.
Outgoing: 12.4

Incoming: Find the recorded % inhibition male (individual replicates) R1 belonging to Nc1nc(Cc2ccc(Cl)cc2)nc(Cc2ccc(Cl)cc2)n1 and report it.
Outgoing: -13.6

---

# Tested on: P. falciparum female gametocytes
# Assay Method Text: P. falciparum Dual Gamete Formation Assay (PfDGFA), female readout (Pfs25-positive female gametes)
# Format: cell-based, Plasmodium falciparum NF54
# Condition Details: 2µM, 24h preincubation with gametocytes prior to induction of gametogenesis; replicate R4
Observation Type: % inhibition female (individual replicates) R4 (%)
Form entry: value (%) — number only.

# annotated cases, reported % inhibition female (individual replicates) R4 shown
Br.C[C@@H](COc1ccc(-c2ccccc2)cc1)CON1C(N)=NC(N)=NC1(C)C = -1.3
Cc1ccc(-n2c(C)nc3c(Nc4ccc(-c5ccncc5)cc4)ncnc32)c(C)c1 = 3.5
CC(C)(C)c1ccc(-c2cc3c(ccc4nc(N)nc(N)c43)[nH]2)cc1 = 37.6
Cc1cc2c3c(N)nc(N)nc3ccc2n1C = 34.2
CN1CCN(Cc2nc(-c3ccc4c(Nc5ccc(Oc6ccccc6)cc5)ccnc4c3)cs2)CC1 = 18.6
CCCc1cc(OC)c(CC2c3cc(O)c(Cl)cc3C(c3ccccc3)CN2C)cc1OC.Cl (centres unmarked) = -8.9

Incoming: Find the recorded % inhibition female (individual replicates) R4 belonging to CN(C)CCNCc1ccc(-c2ccc3c(Nc4ccc(Cl)cc4F)ccnc3c2)o1 and report it.
Outgoing: 31.7

Incoming: Find the recorded % inhibition female (individual replicates) R4 belonging to COC(=O)c1ccc(-c2ccc(-c3cccnc3)cc2C)cc1 and report it.
Outgoing: 0.5

---

# System: P. falciparum female gametocytes
# Assay Method Text: P. falciparum Dual Gamete Formation Assay (PfDGFA), female readout (Pfs25-positive female gametes)
# Assay type: cell-based, Plasmodium falciparum NF54
# Condition Details: this study; read-out: Pf DGFA IC50 FEM
Field: label. Allowed values: y (IC50 < 800 nM) or n (IC50 >= 800 nM).

CCC1CN2CCc3cc(OC)c(OC)cc3C2CC1CC1NCCc2cc(OC)c(OC)cc21.Cl (centres unmarked) [TC73] = y
COc1ccc(Nc2ncc(OC)c(Nc3ccccc3C(N)=O)n2)cc1N1CCN(C)CC1.O=CO [TC59] = n

Incoming: Does this compound meet the criterion IC50 < 800 nM? [O-][s+]1c(Cl)c(-c2ccc(Cl)cc2)c2ccc(Cl)cc21 (centres unmarked) [TC66]
Outgoing: y

Incoming: Does this compound meet the criterion IC50 < 800 nM? CN1CCN(c2ccc(Nc3ncc(C#N)c(Nc4ccccc4C(N)=O)n3)cc2)CC1.Cl [TC49]
Outgoing: n

Incoming: Does this compound meet the criterion IC50 < 800 nM? COc1ccc2nc3cc(Cl)ccc3c(NCCCCNc3c4ccc(Cl)cc4nc4ccc(OC)cc34)c2c1 [TC02]
Outgoing: y
